tgt: T1, hPD-1-Fc (human, UniProt Q15116 25-167)
T1 construct: domain: IgV domain; also called human PD-1-Fc; not shown: human IgG1 Fc
method.description: blocking ELISA, hPD-1-Fc to hPD-L1-Fc
outcome.measure: Inhibition % (3.3 nM)
Note to self: number, then unit, no commentary.

Which measured Inhibition % (3.3 nM) value corresponds to 19B10 (antibody, human IgG1, V domains shown) VH: EVQLLESGGGLVQPGGSLRLSCAASGFTFSSYAMHWVRQAPGKGLEWVSGISNSGGNTYYADSVKGRFTISRDNSKNTLYLQMNSLRAEDTAVYYCARDNYYYYMDVWGKGTTVTVSS VL: DIQMTQSPSSLSASVGDRVTITCRASQSVSTWLAWYQQKPGKAPKLLIYAASNLETGVPSRFSGSGSGTDFTLTISSLQPEDFATYYCQQTYSTPYTFGQGTKLEIK ?
22.9%
